Source of measurements: the supplement of paper PMC9170038

# Tested on: K4 kissing-loop RNA reporter;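 note: bound reporter read as fluorescence of individual clusters on recovered sequencing chips by microscopy, with normalized cluster intensities fitted with a binding model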
# assayDetails: apparent KD of K4 kissing-loop reporter; higher = weaker reporter binding
# conditionNotes: Eterna round: R107; input ligand: theophylline 20 uM
Class assignment keyed on apparent KD of K4 kissing-loop reporter, ranges bottom: < 200 nM; middle: ≥ 200 nM and < 400 nM; top: ≥ 400 nM

Worked examples, 4 sequences total:
chainSequence | assignedClass
AUUCGUCUCUGAGGAUAUCAGAGGAGAGUGAUGUUCUCCCAUAGCCCAGUGAUGUUGGAUGCUAUCUGAGAAGGCAGUGGGCGAA [Same State FMN B GF 14] | middle
UACAGGGAUAGUGAUGUUAUCCCAUGUGAUACCAGUGUCAUCCAACACCCUUGGCAGCAUACGGGCAGUGAUGUUGUUCUUGGUA [#17 K4 Theophylline A Exclusion] | bottom
GCCGUAGUUGGAAGGAGCGUGAAUGGCCUCUAUCCAAAGUGAUGUUUUGUUGAAGACUGUUCACAGGUAGGUCGCCAACUACGGC [#09 K4 Arginine B Same State] | bottom
GCCGUACGCAUGGAUACCAGUCUUUCGCGACUGGACAUGGAGUGAUGUUUCGUGAUGCUAGACCCUUGGCAGCCAUGCGUACGGC | middle

Form: Item = AGAGUUAUAUGAGGAUAUGGGAUAGUAACUGAGUGAGUUAUAGUGUAGUUUGUUUAGUGAUGUUAUUUAGAAGGCGUGAGUGAUG [wwwsemullin] ; Class = ? bottom

Form: Item = UGACUGGAUGGAAGGAGCGCUAAACUCCUAGUGAUGUUAGGGAAAUGAGACAAAGUCUCAAGGCAGGUAGGUCGCCAUCUAGUCU [FiskerMod 16 - Jieux - Same State - Arginine B] ; Class = ? top

Form: Item = `GGUAGCAUGGCGGCCGCCACUUCAAGUGGAGUGAUGUUCCACGGCAUCGCGAAAGCGAUGCCUGGAAGGACCGGGCCAUGCUACC` ; Class = ? top

Form: Item = UACUGGGCGAGUGAUGUUUGCUCAUGUGAUACCAGUGCCAUCCAACACCCUUGGCAGCAUGCGGGCAGUGAUGUUGUCCAUGGAA [Exclusion Theophylline A GF10] ; Class = ? top

====

# System: MS2 coat protein
# assayDetails: apparent KD of MS2 coat protein; higher = weaker reporter binding
# conditionNotes: Eterna round: R107; input ligand: theophylline 20 uM
Entries annotated with measured apparent KD of MS2 coat protein
Report as a plain number; the unit nM is understood.

Below: 5 sequences and their reported apparent KD of MS2 coat protein.
chainSequence | measuredEndpoint | unitsOfMeasure | assayResult
GGAUAGGACAGAAGGAGCGACGUGAGGCGAAAGCCAAUCCUUCAACAUGAGGAUCACCCAUGUCAGGUAGGUCGCUGUCCUAUCG [ArgBX 5] | apparent KD of MS2 coat protein | nM | 26.4
UGUAUGGACUGAAGGAGCGCCUCAAACAUGAGGAUCACCCAUGUGGACAAAUAAGUCCUUGGGCAGGUAGGUCGCAGUCCAUACU [ArgBX 7 #StaticStem #MS2Late] | apparent KD of MS2 coat protein | nM | 91.2
CACGAAAGAUCGGCCGCCACUAUUUGAUGUGUUCUUUCACAUGAGGAUCACCCAUGUUCUUAUUUUAGGACCGGGAUUGAGCGUG [ETB #2] | apparent KD of MS2 coat protein | nM | 142
ACUUGUGAGUCGGCCGCCACUCACCGGUAGUGUCACUCGUUCACAAACAUGAGGAUCACCCAUGUGAGGACCGGGACAGUCGGGU [theeternabot_exclusion_MS2_Trp_B_28] | apparent KD of MS2 coat protein | nM | 25.4
GCACCAGGUACGGAUACCAGACGUUGCCAAUUGGGUGCACAUGAGGAUCACCCAUGUUCUGUCCCUUGGCAGCCGUACCUGGUGC [EThB NP+V+V2 #5] | apparent KD of MS2 coat protein | nM | 13.5

As a next step, examine the sequence that follows.
Could you tell me which apparent KD of MS2 coat protein is on file for AACAUACAAUUUUAGGUGGAUAUAAGGCGGCGAGGACCGGUACGGCCGCCACUCGCGUACAUGAGGAUCACCCAUGUCUGAAACU [Same State - Tryptophan A (Freestyle 5)] ? 28.1
